Can you tell me inhibition for the items I'm about to list?
Assay Text: 384-well plate pilot, post-Golgi transport modulator project, inhibition of yeast transport mutant growth (AID 636)
Measurement Conditions: absorbance 615 nm, about 18 h, active compounds read high
Answers are plain numbers, in %.

Compound: O=C(NCc1nnc(SCC(=O)N2CCCCCC2)o1)c1ccco1
inhibition (%): -4.27
--
Compound: CCOC(=O)c1cccnc1SCC(=O)NC(C)CC (stereo unspecified)
inhibition (%): 2.08
--
Compound: CCOC(=O)c1ccc(N2C(=O)CC(NC3CCN(C(=O)c4ccc(F)cc4)CC3)C2=O)cc1 (stereo unspecified)
inhibition (%): 1.45

For every listed record, write down its inhibition.
1. COCCNC(=O)CSc1nc(-c2ccc(OC)c(OC)c2)cc(C(F)(F)F)n1
2. Cc1cc(C)n(-c2nc3nonc3nc2-n2nc(C)cc2C)n1
3. Cn1c(SCc2cccc3ccccc23)nnc1-c1ccco1
4. O=C(NC1CCN(Cc2nnnn2CCc2ccccc2)CC1)c1ccccc1F
5. CCOC(=O)c1[nH]nc(N)c1NC(=O)c1ccc(Cl)cc1Cl
6. CCOc1ccc2[nH]c(=O)c(C(c3nnnn3Cc3ccco3)N3CCC(C)CC3)cc2c1 (stereo unspecified)
7. CCOC(=O)C(NC(C)=O)(Nc1ccc(S(=O)(=O)Nc2nccs2)cc1)C(F)(F)F (stereo unspecified)

Result ::
1.84
-2.5
-0.93
0.13
3.6
-5.34
0.39

Value of inhibition reported for the compound "Cc1ccc(NC(=O)CNc2cccc(C)c2C)c(C)c1" is -0.53

---

Can you tell me inhibition for the items I'm about to list?
Assay Text: inhibitors of the yeast RAM network, pilot screen, dse1pr::URA3 reporter, 5-FOA selection (AID 869);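 note: 0% = DMSO wells with no growth and 100% = 10 µM 1-NA-PP1 with full growth; RAM network block rescues cells from 5-FOA so hits raise OD615 growth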
Measurement Conditions: S. cerevisiae dse1pr::URA3 5-FOA growth, OD615, 2 d; at 10 µM; active compounds read high; strain carries analog-sensitive mutant Cbk1 kinase
One number for each entry, in %.

For every listed record, write down its inhibition.
1. CC1=CCC(C(=O)O)C(C(=O)O)C1 (configuration not stated)
2. CC(C)N(CCc1ccncc1)C(=O)Nc1ccc(Cl)c(Cl)c1
3. CCOc1ccc(N(CC(=O)NCCSc2ccccn2)S(C)(=O)=O)cc1

Result ::
1. 1.69
2. 2.42
3. 0.35

---

Assay Text: RAM signaling pathway blockade in yeast – S. cerevisiae, Pdr1DBD-CYC8 efflux-inhibited sensitized strain, primary screen (AID 1298);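 note: 0% = DMSO untreated cells without growth and 100% = 10 µM 1-NA-PP1 full growth; higher means more yeast growth rescued from 5-FOA killing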
Measurement Conditions: S. cerevisiae cbk1-as DSE1-URA3 strain, 5-FOA growth OD615, 2 d; at 50 µM; active compounds read high
Property Name: RAM network inhibition (%)
Answers are plain numbers, in %.

Molecule: O=C(Nc1ccc(F)cc1F)N1CCN(c2ncccn2)CC1
RAM network inhibition, %: 3.24

For every listed record, write down its RAM network inhibition.
1. CC(=O)NCCN=Cc1sc2ccccc2c1O
2. COCC(=O)NCc1nc2ccccc2[nH]1
3. COc1ccc(-c2cc3ccccc3n2CC(O)CN2CCN(CCO)CC2)cc1 (stereo unspecified)
4. CCOc1ccc(Oc2nc(NCC(C)C)nc(OC)n2)nn1
5. CCS(=O)(=O)N1CCN(C(=O)c2cccs2)CC1
6. COc1ccc(NC(=O)N2CCC(c3ccccc3)C2)c(OC)c1 (stereo unspecified)
7. C=CCn1c(CCCNC(=O)CCC)nc2ccccc21

Result ::
[-0.37, 2.13, 4.23, -1.03, -0.05, -1.49, 4.24]

---

Can you tell me viability increase for the items I'm about to list?
Assay Text: viability gain of MRP-1-high H69AR cells under doxorubicin, pilot screen, MRP-1 activator project, CellTiter-Glo, duplicate (AID 807);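 note: compound pretreatment 18-22 h then 72 h combined with doxorubicin; 0% = doxorubicin alone and 100% = vehicle without doxorubicin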
Measurement Conditions: H69AR viability with doxorubicin, CellTiter-Glo luminescence; at 10 µM; active compounds read high
One number for each entry, in %.

Molecule: c1coc(Cn2c(SCc3nc4ccccc4[nH]3)nnc2-c2cccs2)c1
viability increase, %: -1.17
--
Molecule: Cc1noc(C(=O)Nc2c(C)n(C)n(-c3ccccc3)c2=O)c1Cl
viability increase, %: -2.04
--
Molecule: O=C(O)c1ccc(N2C(=O)CC(Cc3ccccc3)C2=O)cc1 (stereo unspecified)
viability increase, %: -1.42
--
Molecule: O=C(CCn1c(=O)sc2ccccc21)NCCN1CCOCC1
viability increase, %: -1.01
--
Molecule: CCSc1nsc(SCC)c1C(N)=O
viability increase, %: -1.55
--
Molecule: O=C1c2ccccc2-c2nc3ncnn3c(-c3ccccc3Cl)c21
viability increase, %: -3.38
--
Molecule: Cc1ccc2c(c1)C(c1ccc(F)cc1)N(C(=O)C1CC1)CC(=O)N2 (stereo unspecified)
viability increase, %: -1.19
--
Molecule: CCOc1ccc(Cn2nnc(C(=O)NCc3ccccc3)c2N)cc1
viability increase, %: 2.17
--
Molecule: O=C(Nc1cccc(F)c1)c1ccc(S(=O)(=O)N2CCOCC2)cc1
viability increase, %: -2.24
--
Molecule: CCC(=O)Nc1cc(C)c(NC(=O)c2ccco2)cn1
viability increase, %: 0.56

Value of viability increase reported for the molecule Cc1ccc(S(=O)(=O)CC(C)N2CCOCC2)c(S(=O)(=O)CC(C)N2CCOCC2)c1 (stereo unspecified) is 1.48

---

Assay Text: Restrictive medium S. cerevisiae growth inhibition, OD615, pilot screen of yeast lifespan reduction project, restrictive growth control (AID 706);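 note: modified DeaD lifespan yeast strain shifted to restrictive glucose medium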
Measurement Conditions: OD615, 48 h, at 10 µM, active compounds read high
Active and inactive are the calls of the source.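 Rule for the calls: active = growth inhibition above a set limit, 3 SD over mean compound inhibition, in both replicates (cut at about 43% in these data); inconclusive = above the limit in only one replicate; inactive = at or below the limit in both replicates.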
Property Name: growth inhibition

Compound Structure: Cc1cccc(N(CC(=O)Nc2c(C)n(C)n(-c3ccccc3)c2=O)S(C)(=O)=O)c1
Property Name: growth inhibition
Reported Value: -0.62% (inactive)

Compound Structure: CCOc1cc(OCC)cc(C(=O)Nc2cccnc2)c1
Property Name: growth inhibition
Reported Value: -12.7% (inactive)

Compound Structure: COc1ccc(OC)c(CN2CCN(c3ccccc3OC)CC2)c1
Property Name: growth inhibition
Reported Value: -8.51% (inactive)

Compound Structure: CCOc1ccc(NC(=O)CN2C(=O)COc3ccc(Cl)cc32)cc1
Property Name: growth inhibition
Reported Value: -12.8% (inactive)

Continue with the next molecule.
Value of growth inhibition reported for the molecule "COc1ccc(C)cc1NC(=O)Cn1cnc2sc(C)c(S(=O)(=O)N3CCOCC3)c2c1=O" is 4.67% (inactive)

---

Can you tell me inhibition for the items I'm about to list?
Assay Text: growth suppression of yeast trafficking mutant, preliminary HTS, modulators of trafficking downstream of Golgi apparatus project, 1536-format plate, OD 615 nm (AID 637)
Measurement Conditions: yeast transport mutant growth, absorbance 615 nm, 18 h; active compounds read high
Square brackets hold non-standard residues; d marks the D form. Peptide text beside a SMILES is read from it. ξ: configuration not given here. ξV = CC(C)C(N)C(=O)O
Numbers only, in %.

Field: example entries. Status: answers known.
Compound: O=S(=O)(NCc1ccco1)c1cccc2cccnc12
Units Of Measure: %
Reported Value: -1.45
//
Compound: CCc1ccccc1NC(=O)CCc1nc(-c2ccc(C)cc2)no1
Units Of Measure: %
Reported Value: -3.67

For every listed record, write down its inhibition.
1. COc1ccc(-c2noc(-c3ccccc3C(=O)NCc3ccco3)n2)cc1
2. Cc1cc(C)n2cc(CSc3nnnn3-c3ccc(Cl)cc3)nc2n1
3. CCCC(=O)N(c1ccc2oc(=O)sc2c1)S(=O)(=O)c1ccccc1
4. CCOC(=O)C(C)Sc1nc2c(cnn2-c2ccc(C)cc2)c(=O)[nH]1 (stereo unspecified)
5. O=C(CSc1nc(-c2ccccc2)cs1)NCc1ccco1
6. O=C(CN1CCN(c2ncccn2)CC1)Nc1ccccc1-n1cccc1
7. CCCCn1c(CN2CCN(c3cccc(Cl)c3)CC2)nc2c1c(=O)n(C)c(=O)n2C

Result ::
1: -5.24; 2: 0.65; 3: -3.81; 4: -11.2; 5: -9.18; 6: -6.83; 7: 6.07

For every listed record, write down its inhibition.
1. CC(=O)NC(C(=O)NCC(N)=O)C(C)C (stereo unspecified) (Ac-[ξV]-Gly-NH2)
2. CCOC(=O)c1ccc(NC(=O)CSc2n[nH]c(-c3ccncc3)n2)cc1

Result ::
1: -9.05; 2: 1.27

---

Can you tell me inhibition for the items I'm about to list?
Assay Text: growth suppression of yeast trafficking mutant, preliminary HTS, modulators of trafficking downstream of Golgi apparatus project, 1536-format plate, OD 615 nm (AID 637)
Measurement Conditions: yeast transport mutant growth, absorbance 615 nm, 18 h; active compounds read high
Numbers only, in %.

Field: example entries. Status: answers known.
Molecule: Cc1cccc(CCNC(=O)C2CCCN(S(=O)(=O)c3cnc[nH]3)C2)c1 (stereo unspecified)
Property Name: inhibition
Units Of Measure: %
Reported Value: -1.97

Molecule: Cc1ccc(-c2nc3ncccc3o2)cc1NC(=O)c1ccco1
Property Name: inhibition
Units Of Measure: %
Reported Value: -2.62

Molecule: COc1ccc2c(C(F)(F)F)cc(=O)oc2c1C
Property Name: inhibition
Units Of Measure: %
Reported Value: 9.68

Molecule: CCCCCCC1/C(=N/O)CCC1C(=O)OC (stereo unspecified)
Property Name: inhibition
Units Of Measure: %
Reported Value: -5.71

Molecule: CCCCN(C)C(=O)CS(=O)(=O)Cc1nc(-c2cccc(OC)c2)oc1C
Property Name: inhibition
Units Of Measure: %
Reported Value: 3.11

Value of inhibition reported for the molecule "O=C(COc1nnc2ccccn12)N1CCN(S(=O)(=O)c2ccccc2)CC1" is -5.09
